Tested on: XIP peptide (Xip251-270)
experimentalProtocol: small-molecule binders of XIP peptide, primary screen, biochemical, small-molecule microarray, fluorescence 635/667 nm, 0.5 µg/mL protein (AID 1183)
measurementSetup: small-molecule microarray binding, fluorescence 635 nm; higher = more signal
assayReadout: composite z-score
Output: the number by itself.

Below, each entry is followed by its recorded composite z-score result.
molecularstring=C[N+](C)(C)CCCC[C@@H]1NC(=O)[C@H]2C[C@@H](C(=O)NCCCCCN)[C@@H](c3cccc(OCCO)c3)N2C1=O target="XIP peptide (Xip251-270)" reading=0.608
molecularstring=CC(C)(C)OC(=O)CC[C@@]12N=C(c3ccc(OCCCO)cc3)O[C@@H]1c1ccccc1N(Cc1ccccc1)C2=O target="XIP peptide (Xip251-270)" reading=0.693
molecularstring=O=c1n(-c2ccccc2)c(=O)n2n1CC(COc1ccccc1)=C1[C@@H](CCc3ccccc3)OB(O)C[C@@H]12 target="XIP peptide (Xip251-270)" reading=-0.0257
molecularstring=C=C(COC)C(=O)CC[C@@H](OC(=O)c1ccccc1-c1ccccc1C(=O)O)c1cccc(OCCO)c1 target="XIP peptide (Xip251-270)" reading=-0.29
molecularstring=COCCCNC(=O)[C@@]1(Cc2ccccc2)N=C(c2ccc(OCCCO)cc2)O[C@H]1c1ccccc1N=[N+]=[N-] target="XIP peptide (Xip251-270)" reading=-0.473
molecularstring=CC(C)(C)OC(=O)CC[C@@]12N=C(c3ccc(OCCCO)cc3)O[C@@H]1c1ccccc1CN(Cc1ccccc1)C2=O target="XIP peptide (Xip251-270)" reading=0.687

Q: Requested read-out: composite z-score. Entry: "O=C(NCc1ccccc1)[C@@H]1c2ccccc2C(=O)N(Cc2ccccc2Cl)[C@H]1c1ccc(CO)cc1"
Result: 0.819

Q: Requested read-out: composite z-score. Entry: "COc1ccc([Si](C)(C)[C@H]2[C@H](CCO)O[C@@]3(C(=O)N(Cc4ccc(N5C(=O)c6cccc7cccc5c67)cc4)c4ccccc43)[C@@H]2C)cc1"
Result: 0.623

Data origin, for the record: PubChem BioAssay
